Assay: Inhibition of Dengue virus 2 full length NS5 RNA-dependent RNA polymerase assessed as reduction in elongation activity incubated for 1 hr
Set-up: species or system dengue virus type 2
Settings: read-out: IC50
measured_attribute: IC50 (µM)
Your answer is read as µM, so omit the unit and give the number.

Previously resolved entries follow.
> print(dat)
                                   compound  measurement.units  readout.number
1  CC(C)C(CC(=O)O)NC(=O)c1cc(-c2ccccc2)c(=O)n2c1sc1ccc(OC3CCCCC3)cc12 (racemic)                 µM            22.1
2  O=C(O)CC(NC(=O)c1cc(-c2ccccc2)c(=O)n2c1sc1ccc(OC3CCCCC3)cc12)c1ccccc1 (racemic)                 µM            10.4
3  CC(C)(CC(=O)O)NC(=O)c1cc(-c2ccccc2)c(=O)n2c1sc1ccc(OC3CCCCC3)cc12                 µM            23.2

Consider now this further compound.
Request: Would you kindly share the measured IC50 for O=C(NCC1(C(=O)O)CC1)c1cc(-c2ccccc2)c(=O)n2c1sc1ccc(OC3CCCCC3)cc12 ?
Result: 17.8

###

System: dengue virus type 2
Assay: Inhibition of Dengue virus 2 full length NS5 RNA-dependent RNA polymerase assessed as reduction in de novo initiation activity at 30 uM incubated for 1 hr relative to control
Calls of active or inactive are those of the source. The calls are words filed in the database; no cut-off is given here.
measured_attribute: inhibition

Previously resolved entries follow.
> print(dat)
                                   compound    result
1  O=C(O)CC(NC(=O)c1cc(-c2ccccc2)c(=O)n2c1sc1ccc(OC3CCCCC3)cc12)c1ccccc1 (racemic)     79.3%
2  CC(C)(CC(=O)O)NC(=O)c1cc(-c2ccccc2)c(=O)n2c1sc1ccc(OC3CCCCC3)cc12     81.5%
3  C[C@@H](CO)NC(=O)c1cc(-c2ccccc2)c(=O)n2c1sc1ccc(OC3CCCCC3)cc12  inactive
4  O=C(O)C1CCN(C(=O)c2cc(-c3ccccc3)c(=O)n3c2sc2ccc(OC4CCCCC4)cc23)C1 (racemic)       11%
5  NC(=O)CCNC(=O)c1cc(-c2ccccc2)c(=O)n2c1sc1ccc(OC3CCCCC3)cc12  inactive

Request: Would you kindly share the measured inhibition for C[C@H](CO)NC(=O)c1cc(-c2ccccc2)c(=O)n2c1sc1ccc(OC3CCCCC3)cc12 ?
Result: inactive

Request: Would you kindly share the measured inhibition for O=C(O)C1CCCN(C(=O)c2cc(-c3ccccc3)c(=O)n3c2sc2ccc(OC4CCCCC4)cc23)C1 (racemic) ?
Result: inactive

Request: Would you kindly share the measured inhibition for O=C(NCC1(C(=O)O)CC1)c1cc(-c2ccccc2)c(=O)n2c1sc1ccc(OC3CCCCC3)cc12 ?
Result: 68.1%

Request: Would you kindly share the measured inhibition for CC(CC(=O)O)NC(=O)c1cc(-c2ccccc2)c(=O)n2c1sc1ccc(OC3CCCCC3)cc12 (racemic) ?
Result: 22.7%

Request: Would you kindly share the measured inhibition for CC(C)C(CC(=O)O)NC(=O)c1cc(-c2ccccc2)c(=O)n2c1sc1ccc(OC3CCCCC3)cc12 (racemic) ?
Result: 75%

Request: Would you kindly share the measured inhibition for O=C(c1cc(-c2ccccc2)c(=O)n2c1sc1ccc(OC3CCCCC3)cc12)N1CCCC(O)C1 (racemic) ?
Result: inactive

###

Assay: Selectivity index, ratio of CC50 for human Huh-7 cells to EC50 for dengue virus 2 EDEN 3295 infected in human Huh-7 cells
Type: toxicity, cell-based
Settings: read-out: Ratio CC50/EC50
As shown below, each of these compounds has a reported selectivity ratio value.

Previously resolved entries follow.
> print(dat)
                                   compound  result
1  O=C(O)CC(NC(=O)c1cc(-c2ccccc2)c(=O)n2c1sc1ccc(OC3CCCCC3)cc12)c1ccccc1 (racemic)      83
2  CC(C)(CC(=O)O)NC(=O)c1cc(-c2ccccc2)c(=O)n2c1sc1ccc(OC3CCCCC3)cc12      32

Request: Would you kindly share the measured selectivity ratio for O=C(c1cc(-c2ccccc2)c(=O)n2c1sc1ccc(OC3CCCCC3)cc12)N1CCCC(O)C1 (racemic) ?
Result: 17

Request: Would you kindly share the measured selectivity ratio for CC(C)C(CC(=O)O)NC(=O)c1cc(-c2ccccc2)c(=O)n2c1sc1ccc(OC3CCCCC3)cc12 (racemic) ?
Result: 12

###

System: dengue virus type 2
Test: Inhibition of Dengue virus 2 full length NS5 RNA-dependent RNA polymerase assessed as reduction in elongation activity at 30 uM incubated for 1 hr relative to control
measured_attribute: inhibition (%)
Your answer is read as %, so omit the unit and give the number.

Previously resolved entries follow.
> print(dat)
                                   compound  measured.attribute  measurement.units  readout.number
1  O=C(O)CC(NC(=O)c1cc(-c2ccccc2)c(=O)n2c1sc1ccc(OC3CCCCC3)cc12)c1ccccc1 (racemic)          inhibition                  %            96.2
2  C[C@H](CO)NC(=O)c1cc(-c2ccccc2)c(=O)n2c1sc1ccc(OC3CCCCC3)cc12          inhibition                  %            42.7
3  CC(C)(CC(=O)O)NC(=O)c1cc(-c2ccccc2)c(=O)n2c1sc1ccc(OC3CCCCC3)cc12          inhibition                  %            95.9
4  CC(C)C(CC(=O)O)NC(=O)c1cc(-c2ccccc2)c(=O)n2c1sc1ccc(OC3CCCCC3)cc12 (racemic)          inhibition                  %            92.8
5  O=C(NCC1(C(=O)O)CC1)c1cc(-c2ccccc2)c(=O)n2c1sc1ccc(OC3CCCCC3)cc12          inhibition                  %            96.7
6  NC(=O)CCNC(=O)c1cc(-c2ccccc2)c(=O)n2c1sc1ccc(OC3CCCCC3)cc12          inhibition                  %            37.2

Request: Would you kindly share the measured inhibition for O=C(c1cc(-c2ccccc2)c(=O)n2c1sc1ccc(OC3CCCCC3)cc12)N1CCCC(O)C1 (racemic) ?
Result: 36.9

Request: Would you kindly share the measured inhibition for O=C(O)C1CCN(C(=O)c2cc(-c3ccccc3)c(=O)n3c2sc2ccc(OC4CCCCC4)cc23)C1 (racemic) ?
Result: 64.6

Request: Would you kindly share the measured inhibition for C[C@@H](CO)NC(=O)c1cc(-c2ccccc2)c(=O)n2c1sc1ccc(OC3CCCCC3)cc12 ?
Result: 42.5

Request: Would you kindly share the measured inhibition for O=C(O)C1CCCN(C(=O)c2cc(-c3ccccc3)c(=O)n3c2sc2ccc(OC4CCCCC4)cc23)C1 (racemic) ?
Result: 64.9

Request: Would you kindly share the measured inhibition for CC(CC(=O)O)NC(=O)c1cc(-c2ccccc2)c(=O)n2c1sc1ccc(OC3CCCCC3)cc12 (racemic) ?
Result: 69.3

###

Experiment: Selectivity index, ratio of CC50 for human Huh-7 cells to EC50 for dengue virus 2 EDEN 3295 infected in human Huh-7 cells
Format: toxicity, cell-based
Details: read-out: Ratio CC50/EC50
As shown below, each of these molecules has a reported selectivity ratio value.
Write the number on its own, no unit after it.

> print(dat)
                                     smiles  measured.attribute  readout.number
1  O=C(NCC1(C(=O)O)CC1)c1cc(-c2ccccc2)c(=O)n2c1sc1ccc(OC3CCCCC3)cc12   selectivity ratio            13.3

Request: Would you kindly share the measured selectivity ratio for C[C@@H](CO)NC(=O)c1cc(-c2ccccc2)c(=O)n2c1sc1ccc(OC3CCCCC3)cc12 ?
Result: 20

Request: Would you kindly share the measured selectivity ratio for C#C[C@@]1(O)[C@H](O)[C@@H](CO)O[C@H]1n1ccc2c(N)ncnc21 ?
Result: 100

Request: Would you kindly share the measured selectivity ratio for C[C@H](CO)NC(=O)c1cc(-c2ccccc2)c(=O)n2c1sc1ccc(OC3CCCCC3)cc12 ?
Result: 3

Request: Would you kindly share the measured selectivity ratio for NC(=O)CCNC(=O)c1cc(-c2ccccc2)c(=O)n2c1sc1ccc(OC3CCCCC3)cc12 ?
Result: 58
